Target: T1, human EpCAM expressed on cells (CHO, Colo205, 293) (human, UniProt P16422 24-314)
T1 construct: whole, on cells; also called CHO cells expressing human EpCAM; Colo205 cells expressing human EpCAM
T1 sequence (looked up): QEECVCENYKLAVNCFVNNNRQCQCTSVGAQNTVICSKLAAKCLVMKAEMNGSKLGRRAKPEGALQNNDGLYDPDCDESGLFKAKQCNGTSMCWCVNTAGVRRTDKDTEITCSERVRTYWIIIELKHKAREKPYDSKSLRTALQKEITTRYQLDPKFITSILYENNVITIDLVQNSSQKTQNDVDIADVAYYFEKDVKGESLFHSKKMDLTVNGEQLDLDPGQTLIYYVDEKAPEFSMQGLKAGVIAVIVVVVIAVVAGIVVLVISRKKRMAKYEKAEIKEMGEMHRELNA
Experiment: FACS of MMAE conjugates on 293 cells expressing human EpCAM, pH 7.4
Description: A similar FACS analysis was also carried out using 293 cells expressing human EpCAM. […] The EC50 values for binding to the 293 cells expressing human EpCAM by the conjugated humanized conditionally active anti-EpCAM antibodies are summarized in Table 17.
reportedMetric: EC50 (µg/mL)
Return type: number; implicit unit µg/mL.

Using known records, supply EC50 for BA-105.4-02-01 8318-vcMMAE (antibody, V domains shown, antibody conjugated to vcMMAE; chain and residues of attachment not stated) VH: EVQLVQSGAEVKKPGATVKISCKVSGYTFTSYWMHWVRQAPGQGLEWMGYIRPSTGYTEYNQKFKDRFTISRDNSKNTLYLQMNSLRAEDTAVYYCGRGDNWVGFANWGQGTLVTVSS VL: EIVMTQSPATLSVSPGERATLSCSASSSISYMHWYQQKPGKAPKLLIYSTSNLASGVPSRFSGSGSGTEFTLTISSLQPDDFATYYCHQWSTYETFGQGTKVEIK 0.335

Name the recorded EC50 of the binder listed here: BA-105-01-01 7376-vcMMAE (antibody, V domains shown, antibody conjugated to vcMMAE; chain and residues of attachment not stated) VH: QVQLQQSGAELAKPGASVKVSCKASGYTFTSYWMHWVKQRPGQGLEWIGYIRPSTGYTEYNQKFKDKATLTADKSSSTAYMQLSSLTFEDSAVYYCGRGDNWVGFANWGQGTLVTVSA VL: QIVLTQSPAIMSASLGEEIALTCSASSSISYMHWYQQKSGTSPKLLIYSTSNLASGVPSRFSGSGSGTFYSLTISSVEAEDAADYFCHQWSTYHTFGSGTKLEIK 0.112

Please report EC50 for the following binder: BA-105.4-01-05 8317-vcMMAE (antibody, V domains shown, antibody conjugated to vcMMAE; chain and residues of attachment not stated) VH: EVQLVQSGAEVKKPGATVKISCKVSGYTFTSYWMHWIRQPPGKGLEWIGYIRPSTGYTEYNQKFKDRFTISRDNSKNTLYLQMNSLRAEDTAVYYCGRGDNWVGFANWGQGTLVTVSS VL: EIVLTQSPDFQSVTPKEKVTITCSASSSISYMHWYQQKPGKAPKLLIYSTSNLASGVPDRFSGSGSGTDFTLKISRVEAEDVGVYYCHQWSTYETFGQGTKVEIK 0.109

Identify the reported EC50 for the following entry. BA-105.4-01-02 8316-vcMMAE (antibody, V domains shown, antibody conjugated to vcMMAE; chain and residues of attachment not stated) VH: EVQLVQSGAEVKKPGESLRISCKGSGYTFTSYWMHWIRQSPSRGLEWLGYIRPSTGYTEYNQKFKDRVTISADKSISTAYLQWSSLKASDTAMYYCGRGDNWVGFANWGQGTLVTVSS VL: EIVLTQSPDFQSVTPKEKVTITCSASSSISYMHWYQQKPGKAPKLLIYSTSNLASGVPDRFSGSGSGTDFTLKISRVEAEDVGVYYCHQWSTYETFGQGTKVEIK 0.0849
